# system: GDP-bound KRAS wild-type protein (Homo sapiens, UniProt P01116)
# Sequence (P01116 1-188 isoform P01116-2): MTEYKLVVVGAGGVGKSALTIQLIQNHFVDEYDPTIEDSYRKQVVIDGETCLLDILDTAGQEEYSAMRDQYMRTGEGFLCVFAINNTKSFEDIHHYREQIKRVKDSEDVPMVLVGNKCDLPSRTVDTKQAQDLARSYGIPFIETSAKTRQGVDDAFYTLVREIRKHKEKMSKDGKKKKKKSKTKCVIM
# assay explanation: Binding to KRAS by surface plasmon resonance (SPR), dissociation constant KD
# run parameters: Single Cycle Kinetics
Field: Kd. Provide a value for each of the compounds that follow.
One number for each entry, in nM.

Some entries whose results are on file:
CCC[C@H]1C(=O)N[C@@H]([C@@H](C)CC)C(=O)N(C)CC(=O)N(C)[C@H]2C/C=C\CCN(C2=O)[C@@H](Cc2ccc(C)cc2)C(=O)N(C)CC(=O)N[C@@H](CCc2cc(F)c(C(F)(F)F)c(F)c2)C(=O)N2CC3(CC3)C[C@H]2C(=O)N(C)C2(CCC2)C(=O)N(C)[C@@H](C2CCCC2)C(=O)N(C)[C@H](C(=O)N(C)C)CC(=O)N1C : 0.019
C=C(C)C[C@H]1C(=O)N(C)[C@H](C(=O)N(C)C)CC(=O)N(C)[C@@H](CCC)C(=O)N[C@@H]([C@@H](C)CC)C(=O)N(C)CC(=O)N(C)[C@H]2C/C=C\CCN(C2=O)[C@@H](Cc2ccc(C(F)(F)F)cc2)C(=O)N(C)CC(=O)N[C@@H](CCc2ccc(C(F)(F)F)c(OC)c2)C(=O)N2C[C@H](OCC)C[C@H]2C(=O)N(C)C2(CCC2)C(=O)N1C : 0.86
CCC[C@H]1C(=O)N[C@@H](C2CCCC2)C(=O)N(C)CC(=O)N(C)[C@H]2C/C=C\CCN(C2=O)[C@@H](Cc2ccc(C(F)(F)F)cc2)C(=O)N(C)CC(=O)N[C@@H](CCc2ccc(C(F)(F)F)c(Cl)c2)C(=O)N2CC3(CC3)C[C@H]2C(=O)N(C)C2(CCC2)C(=O)N(C)[C@@H](C(CC)CC)C(=O)N(C)[C@H](C(=O)N(C)C)CC(=O)N1C : 0.85

Please look at the items below and tell me Kd for each one, in order.
1. CCO[C@@H]1C[C@H]2C(=O)NC3(CCC3)C(=O)N(C)[C@@H](C3CCCC3)C(=O)N(C)[C@H](C(=O)N3CCOCC3)CC(=O)N(C)[C@@H](CC(C)C)C(=O)N[C@@H]([C@@H](C)CC)C(=O)N(C)CC(=O)N(C)[C@H]3CC=C(C)CN(C3=O)[C@@H](Cc3ccc(C(F)(F)F)cc3)C(=O)N(C)CC(=O)N[C@@H](CCc3cc(F)c(C(F)(F)F)c(F)c3)C(=O)N2C1
2. CCO[C@@H]1C[C@H]2C(=O)NC3(CCC3)C(=O)N(C)[C@@H](C3CCCC3)C(=O)N(C)[C@H](C(=O)N(C)C)CC(=O)N(C)[C@@H](CC)C(=O)N[C@@H]([C@@H](C)CC)C(=O)N(C)CC(=O)N(C)[C@H]3CCCCCN(C3=O)[C@@H](Cc3ccc(F)c(F)c3)C(=O)N(C)CC(=O)N[C@@H](CCc3cc(F)c(C(F)(F)F)c(F)c3)C(=O)N2C1

Response:
1: 0.13; 2: 0.16

Request: Suppose we examine the compound CCO[C@@H]1C[C@H]2C(=O)NC3(CC(C)(C)C3)C(=O)N(C)[C@@H](C3CCCC3)C(=O)N(C)[C@H](C(=O)N(C)CC)CC(=O)N(C)[C@@H]([C@@H](C)OC)C(=O)N[C@@H]([C@@H](C)CC)C(=O)N(C)CC(=O)N(C)[C@H]3C/C=C\CCN(C3=O)[C@@H](Cc3ccc(C)cc3)C(=O)N(C)CC(=O)N[C@@H](CCc3ccc(C(F)(F)F)c(OC)c3)C(=O)N2C1 ; what Kd value has been reported?
Response: 0.09

The measurements presented in this section are drawn from patent EP4603105A1.
